Quick reference for pIC50 among some compounds
target: hGRP-receptor (Homo sapiens); assay: Whole cell radioligand binding, HuTu-80 cells
Sequence (P30550 whole entry): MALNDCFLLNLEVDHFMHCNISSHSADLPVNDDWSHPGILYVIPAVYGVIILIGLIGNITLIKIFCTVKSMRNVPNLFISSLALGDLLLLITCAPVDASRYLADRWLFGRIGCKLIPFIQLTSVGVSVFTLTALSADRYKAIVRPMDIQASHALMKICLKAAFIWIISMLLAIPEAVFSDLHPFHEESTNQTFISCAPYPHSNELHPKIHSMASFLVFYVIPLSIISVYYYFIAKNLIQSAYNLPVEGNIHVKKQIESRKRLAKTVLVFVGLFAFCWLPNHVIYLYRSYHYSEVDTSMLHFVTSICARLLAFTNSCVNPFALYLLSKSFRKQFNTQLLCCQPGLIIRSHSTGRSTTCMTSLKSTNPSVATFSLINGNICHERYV
Just so you know, pIC50 here is -log10 of the concentration in molar units; reply with that number alone.

Illustrative cases are given below, each with its answer.
compound | assayedTarget | numericResult
COC(=O)[C@H](CC(C)C)NC(=O)[C@H](Cc1c[nH]cn1)NC(=O)CNC(=O)[C@@H](NC(=O)[C@H](C)NC(=O)[C@H](Cc1c[nH]c2ccccc12)NC(=O)[C@H](CCC(N)=O)NC(=O)[C@H](N)Cc1ccccc1)C(C)C [Peptide 17, [D-Phe^6]Bn-(6-13)Methyl ester (ME)] | hGRP-receptor (Homo sapiens) | 8.40
CCOC(=O)[C@H](CC(C)C)NC(=O)[C@H](Cc1c[nH]cn1)NC(=O)CNC(=O)[C@@H](NC(=O)[C@H](C)NC(=O)[C@H](Cc1c[nH]c2ccccc12)NC(=O)[C@H](CCC(N)=O)NC(=O)[C@H](N)Cc1ccccc1)C(C)C [Peptide 20, [D-Phe^6]Bn-(6-13)Ethyl ester] | hGRP-receptor (Homo sapiens) | 9.85
CCCCNC(=O)[C@H](CC(C)C)NC(=O)[C@H](Cc1c[nH]cn1)NC(=O)CNC(=O)[C@@H](NC(=O)[C@H](C)NC(=O)[C@H](Cc1c[nH]c2ccccc12)NC(=O)[C@H](CCC(N)=O)NC(=O)[C@H](N)Cc1ccccc1)C(C)C [Peptide 14, [D-Phe^6]Bn(6-13)Butylamide (BA)] | hGRP-receptor (Homo sapiens) | 8.99
CCNC(=O)[C@H](CC(C)C)NC(=O)[C@H](Cc1c[nH]cn1)NC(=O)CNC(=O)[C@@H](NC(=O)[C@H](C)NC(=O)[C@H](Cc1c[nH]c2ccccc12)NC(=O)[C@H](CCC(N)=O)NC(=O)[C@H](N)Cc1ccccc1)C(C)C [Peptide 10, [D-Phe^6]Bn(6-13)Ethylamide] | hGRP-receptor (Homo sapiens) | 8.65
CC(Cc1c[nH]c2ccccc12)(NC(=O)Nc1ccc([N+](=O)[O-])cc1)C(=O)NCC1(c2ccccn2)CCCCC1 (centres unmarked) [Peptide 34, reference compound] | hGRP-receptor (Homo sapiens) | 5.76
CC(C)C[C@H](NC(=O)[C@H](Cc1cnc[nH]1)NC(=O)CNC(=O)[C@@H](NC(=O)[C@H](C)NC(=O)[C@H](Cc1c[nH]c2ccccc12)NC(=O)[C@H](CCC(N)=O)NC(=O)[C@H](N)Cc1ccccc1)C(C)C)C(N)=O [Peptide 8, [D-Phe^6]Bn(6-13)NH2] | hGRP-receptor (Homo sapiens) | 8.31
CCCCCCNC(=O)[C@H](CC(C)C)NC(=O)[C@H](Cc1cnc[nH]1)NC(=O)CNC(=O)[C@@H](NC(=O)[C@H](C)NC(=O)[C@H](Cc1c[nH]c2ccccc12)NC(=O)[C@H](CCC(N)=O)NC(=O)[C@H](N)Cc1ccccc1)C(C)C [Peptide 15, [D-Phe^6]Bn-(6-13)Hexylamide] | hGRP-receptor (Homo sapiens) | 8.66

Now consider a different compound.
INPUT: Form: Entry = COc1ccc(C2(CNC(=O)C(C)(Cc3c[nH]c4ccccc34)NC(=O)Nc3ccc([N+](=O)[O-])cc3)CCCCC2)nc1 (centres unmarked) [Peptide 33, reference compound] | System = hGRP-receptor (Homo sapiens) | pIC50 = ____
OUTPUT: 6.77

====

molecular target: hNMB-receptor (Homo sapiens, UniProt P28336); test: Whole cell radioligand binding, hNMB-receptor transfected NCI-H1299 cells
Sequence (P28336 whole entry): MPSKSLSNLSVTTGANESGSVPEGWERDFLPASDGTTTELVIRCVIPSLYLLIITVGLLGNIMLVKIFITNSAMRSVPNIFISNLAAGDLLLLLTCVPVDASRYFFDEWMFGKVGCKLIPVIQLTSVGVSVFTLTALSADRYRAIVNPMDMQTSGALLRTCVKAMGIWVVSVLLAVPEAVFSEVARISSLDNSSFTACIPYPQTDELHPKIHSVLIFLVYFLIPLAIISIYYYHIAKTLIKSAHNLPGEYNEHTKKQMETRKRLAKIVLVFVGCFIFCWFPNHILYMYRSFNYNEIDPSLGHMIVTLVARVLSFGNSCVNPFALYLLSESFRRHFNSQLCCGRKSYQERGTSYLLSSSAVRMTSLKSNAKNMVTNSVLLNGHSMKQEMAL
pIC50: −log10 of the molar value. Square brackets hold non-standard residues; d marks the D form. Peptide text beside a SMILES is read from it.
endpointName: pIC50

compound | pIC50
CSCC[C@H](NC(=O)[C@@H](Cc1c[nH]c2ccccc12)NC(=O)[C@@H](Cc1c[nH]c2ccccc12)NC(=O)[C@H](Cc1ccccc1)NC(=O)[C@@H](Cc1c[nH]c2ccccc12)NC(=O)[C@H](CCC(N)=O)NC(=O)[C@H](CCC(N)=O)NC(=O)[C@H]1CCCN1)C(N)=O [Peptide 4, [D-Pro^4, D-Trp^7,9,10]SP-(4-11)] (H-[dP]QQ[dW]F[dW][dW]M-NH2) | < 5.00
CC(C)C[C@H](NC(=O)[C@H](CC(C)C)NC(=O)[C@@H](Cc1c[nH]c2ccccc12)NC(=O)[C@H](Cc1ccccc1)NC(=O)[C@@H](Cc1c[nH]c2ccccc12)NC(=O)[C@H](CCC(N)=O)NC(=O)[C@H](CCC(N)=O)NC(=O)[C@@H]1CCCN1C(=O)[C@H](CCCCN)NC(=O)[C@@H]1CCCN1C(=O)[C@H](N)CCCN=C(N)N)C(N)=O [Peptide 3, [D-Arg^1, D-Trp^7,9, Leu^11]SP] (H-[dR]PKPQQ[dW]F[dW]LL-NH2) | 5.80
CC(C)C[C@H](NC(=O)[C@H](Cc1cnc[nH]1)NC(=O)CNC(=O)[C@@H](NC(=O)[C@H](C)NC(=O)[C@H](Cc1c[nH]c2ccccc12)NC(=O)[C@H](CCC(N)=O)NC(=O)[C@H](N)Cc1ccccc1)C(C)C)C(N)=O [Peptide 8, [D-Phe^6]Bn(6-13)NH2] | < 5.00

INPUT: Form: Entry = CCCCCCNC(=O)[C@H](CC(C)C)NC(=O)[C@H](Cc1cnc[nH]1)NC(=O)CNC(=O)[C@@H](NC(=O)[C@H](C)NC(=O)[C@H](Cc1c[nH]c2ccccc12)NC(=O)[C@H](CCC(N)=O)NC(=O)[C@H](N)Cc1ccccc1)C(C)C [Peptide 15, [D-Phe^6]Bn-(6-13)Hexylamide] | System = hNMB-receptor (Homo sapiens, UniProt P28336) | pIC50 = ____
OUTPUT: < 5.00

INPUT: Form: Entry = CCCNC(=O)[C@H](CC(C)C)NC(=O)[C@H](Cc1c[nH]cn1)NC(=O)CNC(=O)[C@@H](NC(=O)[C@H](C)NC(=O)[C@H](Cc1c[nH]c2ccccc12)NC(=O)[C@H](CCC(N)=O)NC(=O)[C@H](N)Cc1ccc(O)cc1)C(C)C [Peptide 12, [D-Tyr^6]Bn-(6-13)Propylamide (PA)] | System = hNMB-receptor (Homo sapiens, UniProt P28336) | pIC50 = ____
OUTPUT: < 5.00

INPUT: Form: Entry = COC(=O)[C@H](CC(C)C)NC(=O)[C@H](Cc1c[nH]cn1)NC(=O)CNC(=O)[C@@H](NC(=O)[C@H](C)NC(=O)[C@H](Cc1c[nH]c2ccccc12)NC(=O)[C@H](CCC(N)=O)NC(=O)[C@H](N)Cc1ccccc1)C(C)C [Peptide 17, [D-Phe^6]Bn-(6-13)Methyl ester (ME)] | System = hNMB-receptor (Homo sapiens, UniProt P28336) | pIC50 = ____
OUTPUT: < 5.00

====

biological target: hGRP-receptor (Homo sapiens); test: [3H]inositol phosphate generation, hGRP-receptor transfected Balb 3T3 cells; type: cell-based
Square brackets hold non-standard residues; d marks the D form. Peptide text beside a SMILES is read from it. dPhe(F5) = N[C@H](Cc1c(F)c(F)c(F)c(F)c1F)C(=O)O
endpointName: IC50 (nM)
Just the number in nM, nothing appended.

molecule | assayedTarget | endpointName | numericResult
CCCCCCNC(=O)[C@H](CC(C)C)NC(=O)[C@H](Cc1cnc[nH]1)NC(=O)CNC(=O)[C@@H](NC(=O)[C@H](C)NC(=O)[C@H](Cc1c[nH]c2ccccc12)NC(=O)[C@H](CCC(N)=O)NC(=O)[C@H](N)Cc1ccccc1)C(C)C [Peptide 15, [D-Phe^6]Bn-(6-13)Hexylamide] | hGRP-receptor (Homo sapiens) | IC50 | 380

INPUT: # query: IC50 of entry COC(=O)[C@H](CC(C)C)NC(=O)[C@H](Cc1c[nH]cn1)NC(=O)[C@@H](C)NC(=O)[C@@H](NC(=O)[C@H](C)NC(=O)[C@H](Cc1c[nH]c2ccccc12)NC(=O)[C@H](CCC(N)=O)NC(=O)[C@H](N)Cc1c(F)c(F)c(F)c(F)c1F)C(C)C [Peptide 18] (H-[dPhe(F5)]QWAV[dA]HL-OMe)
OUTPUT: 3.6

INPUT: # query: IC50 of entry COC(=O)[C@H](CC(C)C)NC(=O)[C@H](Cc1c[nH]cn1)NC(=O)CNC(=O)[C@@H](NC(=O)[C@H](C)NC(=O)[C@H](Cc1c[nH]c2ccccc12)NC(=O)[C@H](CCC(N)=O)NC(=O)[C@H](N)Cc1ccccc1)C(C)C [Peptide 17, [D-Phe^6]Bn-(6-13)Methyl ester (ME)]
OUTPUT: 15.5

INPUT: # query: IC50 of entry CCOC(=O)[C@H](CC(C)C)NC(=O)[C@H](Cc1c[nH]cn1)NC(=O)CNC(=O)[C@@H](NC(=O)[C@H](C)NC(=O)[C@H](Cc1c[nH]c2ccccc12)NC(=O)[C@H](CCC(N)=O)NC(=O)[C@H](N)Cc1ccccc1)C(C)C [Peptide 20, [D-Phe^6]Bn-(6-13)Ethyl ester]
OUTPUT: 2

INPUT: # query: IC50 of entry CCCCNC(=O)[C@H](CC(C)C)NC(=O)[C@H](Cc1c[nH]cn1)NC(=O)CNC(=O)[C@@H](NC(=O)[C@H](C)NC(=O)[C@H](Cc1c[nH]c2ccccc12)NC(=O)[C@H](CCC(N)=O)NC(=O)[C@H](N)Cc1ccccc1)C(C)C [Peptide 14, [D-Phe^6]Bn(6-13)Butylamide (BA)]
OUTPUT: 21.3

INPUT: # query: IC50 of entry CCCNC(=O)[C@H](CC(C)C)NC(=O)[C@H](Cc1c[nH]cn1)NC(=O)CNC(=O)[C@@H](NC(=O)[C@H](C)NC(=O)[C@H](Cc1c[nH]c2ccccc12)NC(=O)[C@H](CCC(N)=O)NC(=O)[C@H](N)Cc1ccccc1)C(C)C [Peptide 11, [D-Phe^6-Bn](6-13)Propylamide (PA)]
OUTPUT: 31

INPUT: # query: IC50 of entry CCNC(=O)[C@H](CC(C)C)NC(=O)[C@H](Cc1c[nH]cn1)NC(=O)CNC(=O)[C@@H](NC(=O)[C@H](C)NC(=O)[C@H](Cc1c[nH]c2ccccc12)NC(=O)[C@H](CCC(N)=O)NC(=O)[C@H](N)Cc1ccccc1)C(C)C [Peptide 10, [D-Phe^6]Bn(6-13)Ethylamide]
OUTPUT: 52.5

INPUT: # query: IC50 of entry CCCNC(=O)[C@H](CC(C)C)NC(=O)[C@H](Cc1c[nH]cn1)NC(=O)CNC(=O)[C@@H](NC(=O)[C@H](C)NC(=O)[C@H](Cc1c[nH]c2ccccc12)NC(=O)[C@H](CCC(N)=O)NC(=O)[C@H](N)Cc1ccc(O)cc1)C(C)C [Peptide 12, [D-Tyr^6]Bn-(6-13)Propylamide (PA)]
OUTPUT: 275

INPUT: # query: IC50 of entry CC(C)C[C@H](NC(=O)[C@H](CC(C)C)NC(=O)[C@@H](Cc1c[nH]c2ccccc12)NC(=O)[C@H](Cc1ccccc1)NC(=O)[C@@H](Cc1c[nH]c2ccccc12)NC(=O)[C@H](CCC(N)=O)NC(=O)[C@H](CCC(N)=O)NC(=O)[C@@H]1CCCN1C(=O)[C@H](CCCCN)NC(=O)[C@@H]1CCCN1C(=O)[C@H](N)CCCN=C(N)N)C(N)=O [Peptide 3, [D-Arg^1, D-Trp^7,9, Leu^11]SP] (H-[dR]PKPQQ[dW]F[dW]LL-NH2)
OUTPUT: 1580

INPUT: # query: IC50 of entry CC(C)C[C@H](NC(=O)[C@H](Cc1cnc[nH]1)NC(=O)CNC(=O)[C@@H](NC(=O)[C@H](C)NC(=O)[C@H](Cc1c[nH]c2ccccc12)NC(=O)[C@H](CCC(N)=O)NC(=O)[C@H](N)Cc1ccccc1)C(C)C)C(N)=O [Peptide 8, [D-Phe^6]Bn(6-13)NH2]
OUTPUT: 416

These measurements were taken from paper PMC2766550.
